system: grapes (Vitis labrusca L.); test: Volatility evaluation: injury to grapes from vapor exposure to treated wheat; format: in vivo; details: wheat sprayed at 11200 g ae/ha, 24 hour vapor exposure at 40° C., evaluated 7 days after exposure
measuredProperty: % Injury to grapes from vapor exposure (%)

{"compound": "CCCCOCCOC(=O)COc1ccc(Cl)cc1Cl [2,4-D butoxyethylester (BEE), 2,4-D butoxyethylester, reference compound]", "testedOn": "grapes (Vitis labrusca L.)", "readoutValue": 100}
{"compound": "CNC.O=C(O)COc1ccc(Cl)cc1Cl [2,4-D dimethylamine (DMA), 2,4-D dimethylamine, reference compound]", "testedOn": "grapes (Vitis labrusca L.)", "readoutValue": 78}
{"compound": "CCCCCCCCCCCCCCCCN(C)C.O=C(O)COc1ccc(Cl)cc1Cl", "testedOn": "grapes (Vitis labrusca L.)", "readoutValue": 0}
{"compound": "CCCCCCCCN(C)C.O=C(O)COc1ccc(Cl)cc1Cl", "testedOn": "grapes (Vitis labrusca L.)", "readoutValue": 0}
